Origin of values: ChEMBL document CHEMBL4483862

Tested on: Plasmodium berghei
Test: Luciferase/luciferin-expressing antifolate-resistant parasites were used to infect a culture of HepG2 cells that were pre-incubated with compounds. Infected hepatocytes emit light due to the luciferase reaction. Assay results are presented as the percent inhibition of light emission compared to control. […]
Type: functional
Settings: sporozoite, read-out: LUCIFERASE INFECTION ASSAY - IC90
# IC90 annotations
REPORTED_METRIC: IC90

COMPOUND	STUDY_TARGET	REPORTED_METRIC	TEST_RESULT
COc1ccccc1-c1cc(-c2cccc(C(F)(F)F)c2)cnc1N	Plasmodium berghei	IC90	> 9.58 µM
COc1ccc(N(Cc2cn(-c3ccccc3)nc2-c2ccc(Cl)cc2)S(=O)(=O)c2ccccc2)cc1	Plasmodium berghei	IC90	> 10 µM
O=C(Nc1ncc(Cc2cc(F)cc(F)c2)s1)c1ccc2nc[nH]c2c1	Plasmodium berghei	IC90	6.19 µM
COc1ccc(C2=NOC(C(N)=O)C2)cc1OC (stereo unspecified)	Plasmodium berghei	IC90	9.25 µM
Cc1ccc(-n2cccc2)c(NC(=O)c2c(-c3c(Cl)cccc3Cl)noc2C)c1	Plasmodium berghei	IC90	> 7.74 µM
c1ccc(-c2cc3c(NCc4ccccc4CN4CCOCC4)ncnc3s2)cc1	Plasmodium berghei	IC90	> 10 µM
O=C1C(c2ccccc2)=C(Nc2cc(C(F)(F)F)cc(C(F)(F)F)c2)c2ccccc21	Plasmodium berghei	IC90	0.879 µM
CC(C)c1ccc(Nc2nccc3nc(-c4cccc(C(C)C)c4)[nH]c23)cc1	Plasmodium berghei	IC90	> 10 µM
CC(C)C1NC(=O)N(CCCOc2ccc(C(C)(C)C)cc2)C1=O (stereo unspecified)	Plasmodium berghei	IC90	> 10 µM
C/N=c1\scc(-c2ccccc2Br)n1/N=C/c1ccc[nH]1	Plasmodium berghei	IC90	> 10 µM
O=C(Nc1nc(C23CC4CC(CC(C4)C2)C3)cs1)C1=COCCO1	Plasmodium berghei	IC90	> 10 µM
Cc1ccc(-c2cnc3ccc(NCc4cccs4)nn23)cc1	Plasmodium berghei	IC90	> 10.3 µM
Cc1nc(Sc2ncnc3scc(-c4ccc(F)cc4)c23)oc1C	Plasmodium berghei	IC90	> 10 µM
Clc1cncc2c1Sc1ccccc1N2	Plasmodium berghei	IC90	> 14.1 µM
Cc1ccc(C)c(N2C(=O)C=CC2=O)c1	Plasmodium berghei	IC90	> 16.4 µM
CCn1cc(C(=O)N[C@@H](C)C(=O)OC)c(=O)c2cc3c(cc21)OCO3	Plasmodium berghei	IC90	> 9.53 µM
Cc1csc(SCC(=O)c2cc(C)n(-c3ccccc3)c2C)n1	Plasmodium berghei	IC90	0.219 µM
CCc1nc2oc3ccccc3c(=O)c2c(=O)n1CCc1ccccc1	Plasmodium berghei	IC90	> 9.53 µM
O=C(Cc1noc2ccccc12)Nc1ccc(C(=O)N2CCCC2)cc1	Plasmodium berghei	IC90	> 10 µM
N#Cc1ccnc(N2CCN(c3nc(CSc4ccccc4)nc4sc5c(c34)CCC5)CC2)c1	Plasmodium berghei	IC90	> 10 µM
O=C1/C(=C/c2ccc(-n3nncc3C34CC5CC(CC(C5)C3)C4)cc2)CCC/C1=C\c1ccc(-n2nncc2C23CC4CC(CC(C4)C2)C3)cc1	Plasmodium berghei	IC90	4.22 µM
